assay: in vitro; conditions: human, hela cells, % viability
Recorded viability at 28.5 h, 10 µM values for a group of molecules are listed next.
Kindly provide the numeric value in % only, without the unit symbol.

| MOLECULE | UNITS LABEL | viability at 28.5 h, 10 µM |
| --- | --- | --- |
| CCOC(=O)C1CCCN(c2c(C#N)cnc3ccc(Cl)cc23)C1 (stereo not shown) [CBK304405] | % | 85.8 |
| COc1ccc(N2C(=S)N(CC3CCCCC3)[C@H]3[C@H]4OC(=O)[C@H](C[C@H]4O)[C@H]32)cc1 [CBK288939] | % | 108 |

The molecule listed as O=C(NC[C@H]1C[C@@H]2CC[N@]1C[C@@H]2CN1CCN(c2ccccn2)CC1)Nc1ccsc1 [CBK289113] has a reported viability at 28.5 h, 10 µM of 101

Recorded viability at 28.5 h, 10 µM (molecule Cc1ccc(-c2ncc(OCCC(C)C)nc2N)cc1C [CBK145145] ): 90.5
